Values were extracted from ChEMBL document CHEMBL4414548.

Target: JAK3/JAK1 (Homo sapiens, UniProt P23458+P52333)
Sequence (P52333 whole entry): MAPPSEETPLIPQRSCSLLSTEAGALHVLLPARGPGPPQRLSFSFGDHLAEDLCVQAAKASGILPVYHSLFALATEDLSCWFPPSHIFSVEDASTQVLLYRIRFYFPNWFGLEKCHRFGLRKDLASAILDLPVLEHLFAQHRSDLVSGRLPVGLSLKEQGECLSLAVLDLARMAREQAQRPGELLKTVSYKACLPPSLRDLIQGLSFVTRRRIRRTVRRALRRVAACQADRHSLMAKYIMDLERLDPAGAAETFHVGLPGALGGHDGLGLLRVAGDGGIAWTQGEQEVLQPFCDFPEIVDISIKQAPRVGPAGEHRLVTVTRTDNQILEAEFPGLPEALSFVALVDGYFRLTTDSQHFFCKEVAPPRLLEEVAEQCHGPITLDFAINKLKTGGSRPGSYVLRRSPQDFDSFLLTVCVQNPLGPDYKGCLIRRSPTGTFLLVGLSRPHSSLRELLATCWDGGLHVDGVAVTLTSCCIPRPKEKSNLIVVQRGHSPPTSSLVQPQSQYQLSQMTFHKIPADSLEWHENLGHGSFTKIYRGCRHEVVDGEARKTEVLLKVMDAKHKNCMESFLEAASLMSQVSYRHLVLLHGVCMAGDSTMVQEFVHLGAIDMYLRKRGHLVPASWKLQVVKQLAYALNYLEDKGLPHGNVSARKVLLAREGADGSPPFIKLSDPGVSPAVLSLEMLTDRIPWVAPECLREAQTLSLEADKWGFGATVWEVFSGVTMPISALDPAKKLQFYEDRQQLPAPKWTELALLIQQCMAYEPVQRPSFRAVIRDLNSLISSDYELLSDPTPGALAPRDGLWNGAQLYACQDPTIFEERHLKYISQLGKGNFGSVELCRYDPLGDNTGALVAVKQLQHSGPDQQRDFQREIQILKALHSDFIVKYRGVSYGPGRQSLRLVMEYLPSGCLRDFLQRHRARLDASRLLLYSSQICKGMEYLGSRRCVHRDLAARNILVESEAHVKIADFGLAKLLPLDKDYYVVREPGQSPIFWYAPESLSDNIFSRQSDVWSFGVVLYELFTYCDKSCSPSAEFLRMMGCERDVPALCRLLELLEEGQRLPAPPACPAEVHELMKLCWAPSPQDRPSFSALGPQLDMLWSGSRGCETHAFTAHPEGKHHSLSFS
Sequence (P23458 whole entry): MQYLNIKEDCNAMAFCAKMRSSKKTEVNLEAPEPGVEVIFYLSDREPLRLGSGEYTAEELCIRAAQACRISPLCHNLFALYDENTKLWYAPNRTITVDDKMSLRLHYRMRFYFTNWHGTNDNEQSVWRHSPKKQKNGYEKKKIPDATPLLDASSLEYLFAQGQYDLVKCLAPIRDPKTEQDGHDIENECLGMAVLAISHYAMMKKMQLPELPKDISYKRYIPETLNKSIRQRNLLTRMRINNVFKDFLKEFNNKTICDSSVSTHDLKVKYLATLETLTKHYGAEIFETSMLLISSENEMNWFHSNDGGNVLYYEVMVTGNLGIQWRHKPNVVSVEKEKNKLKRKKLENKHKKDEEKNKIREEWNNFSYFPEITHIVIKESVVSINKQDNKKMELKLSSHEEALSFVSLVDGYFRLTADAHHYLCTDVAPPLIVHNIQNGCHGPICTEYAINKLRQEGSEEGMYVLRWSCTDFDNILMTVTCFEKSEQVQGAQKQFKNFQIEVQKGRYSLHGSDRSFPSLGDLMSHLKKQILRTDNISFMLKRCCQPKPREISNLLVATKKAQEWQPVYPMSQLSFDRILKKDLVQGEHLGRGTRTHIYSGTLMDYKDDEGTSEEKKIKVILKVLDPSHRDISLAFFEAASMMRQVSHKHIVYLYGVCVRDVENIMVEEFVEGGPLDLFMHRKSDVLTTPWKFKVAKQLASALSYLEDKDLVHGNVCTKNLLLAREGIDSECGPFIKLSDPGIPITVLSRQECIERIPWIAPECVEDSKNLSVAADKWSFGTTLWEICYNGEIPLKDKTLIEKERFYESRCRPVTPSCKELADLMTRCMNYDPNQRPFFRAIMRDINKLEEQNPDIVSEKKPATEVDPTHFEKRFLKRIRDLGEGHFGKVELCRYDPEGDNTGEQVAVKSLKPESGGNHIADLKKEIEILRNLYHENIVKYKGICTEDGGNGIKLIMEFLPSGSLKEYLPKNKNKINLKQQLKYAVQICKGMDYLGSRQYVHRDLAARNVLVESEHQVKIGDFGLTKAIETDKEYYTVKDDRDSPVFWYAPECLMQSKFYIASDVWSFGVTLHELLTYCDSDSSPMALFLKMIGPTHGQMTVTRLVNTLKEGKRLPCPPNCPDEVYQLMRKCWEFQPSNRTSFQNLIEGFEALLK
Assay: Inhibition of JAK1/JAK3 (unknown origin) in IL-2 stimulated cells by cell based assay
Catalogue of IC50 values

For orientation, consider the following solved cases.
* CN(C)C(=O)c1cnc(Nc2ccc(F)cn2)cc1Nc1ccccc1C(N)=O | > 12.5 µM
* CNC(=O)c1cnc(Nc2ccc(F)cn2)cc1Nc1ccccc1C(N)=O | > 12.5 µM
* NC(=O)c1ccccc1Nc1cc(Nc2ccc(F)cn2)ncc1C(N)=O | 0.4 µM
* [2H]C([2H])([2H])NC(=O)c1cnc(Nc2ccc(F)cn2)cc1Nc1ccccc1S(C)(=O)=O | > 12.5 µM
* CS(=O)(=O)c1ccccc1Nc1cc(Nc2ccc(F)cn2)ncc1C(N)=O | 0.96 µM

Kindly indicate its recorded IC50. Item: "NC(=O)c1ccccc1Nc1cc(Nc2ccc(F)cn2)ncc1C(=O)NC1CC1"
> 12.5 µM

Kindly indicate its recorded IC50. Item: "CNC(=O)c1cnc(Nc2ccc(F)cn2)cc1Nc1ccccc1S(C)(=O)=O"
> 12.5 µM

Kindly indicate its recorded IC50. Item: "CCNC(=O)c1cnc(Nc2ccc(F)cn2)cc1Nc1ccccc1C(N)=O"
> 12.5 µM

====

Catalogue of pIC50 values
Molecular target: 3',5'-cyclic-AMP phosphodiesterase 4D (Homo sapiens, UniProt Q08499)
Assay: Inhibition of [3H]cAMP binding to recombinant human His-Tb fused PDE4D2 (86 to 413 residues) expressed in Escherichia coli using [3H]cAMP as substrate preincubated for 10 mins followed by [3H]cAMP addition and measured after 1 hr by scintillation proximity assay
Note on units: pIC50 is unitless, being -log10 of a concentration expressed in mol/L.

For orientation, consider the following solved cases.
* CNC(=O)c1cnc(Nc2ccc(F)cn2)cc1Nc1ccc(F)c(F)c1OC | 5.13
* CNC(=O)c1cnc(Nc2ccc(F)cn2)cc1Nc1ccccc1 | 5.35
* CNC(=O)c1cnc(Nc2ccc(F)cn2)cc1Nc1ccccc1C(N)=O | 4.98

Kindly indicate its recorded pIC50. Item: "CNC(=O)c1cnc(Nc2ccc(F)cn2)cc1Nc1ccccc1OC"
5.04

Kindly indicate its recorded pIC50. Item: "CCS(=O)(=O)c1ccccc1Nc1cc(Nc2ccc(F)cn2)ncc1C(=O)NC"
5.34

Kindly indicate its recorded pIC50. Item: "CNC(=O)c1cnc(Nc2ccc(F)cn2)cc1Nc1ccccc1SC"
5.36

Kindly indicate its recorded pIC50. Item: "CNC(=O)c1cnc(Nc2ccc(F)cn2)cc1Nc1ccccc1S(C)(=O)=O"
5.38

====

Molecular target: JAK2/TYK2 (Homo sapiens, UniProt O60674+P29597)
Sequence (O60674 whole entry): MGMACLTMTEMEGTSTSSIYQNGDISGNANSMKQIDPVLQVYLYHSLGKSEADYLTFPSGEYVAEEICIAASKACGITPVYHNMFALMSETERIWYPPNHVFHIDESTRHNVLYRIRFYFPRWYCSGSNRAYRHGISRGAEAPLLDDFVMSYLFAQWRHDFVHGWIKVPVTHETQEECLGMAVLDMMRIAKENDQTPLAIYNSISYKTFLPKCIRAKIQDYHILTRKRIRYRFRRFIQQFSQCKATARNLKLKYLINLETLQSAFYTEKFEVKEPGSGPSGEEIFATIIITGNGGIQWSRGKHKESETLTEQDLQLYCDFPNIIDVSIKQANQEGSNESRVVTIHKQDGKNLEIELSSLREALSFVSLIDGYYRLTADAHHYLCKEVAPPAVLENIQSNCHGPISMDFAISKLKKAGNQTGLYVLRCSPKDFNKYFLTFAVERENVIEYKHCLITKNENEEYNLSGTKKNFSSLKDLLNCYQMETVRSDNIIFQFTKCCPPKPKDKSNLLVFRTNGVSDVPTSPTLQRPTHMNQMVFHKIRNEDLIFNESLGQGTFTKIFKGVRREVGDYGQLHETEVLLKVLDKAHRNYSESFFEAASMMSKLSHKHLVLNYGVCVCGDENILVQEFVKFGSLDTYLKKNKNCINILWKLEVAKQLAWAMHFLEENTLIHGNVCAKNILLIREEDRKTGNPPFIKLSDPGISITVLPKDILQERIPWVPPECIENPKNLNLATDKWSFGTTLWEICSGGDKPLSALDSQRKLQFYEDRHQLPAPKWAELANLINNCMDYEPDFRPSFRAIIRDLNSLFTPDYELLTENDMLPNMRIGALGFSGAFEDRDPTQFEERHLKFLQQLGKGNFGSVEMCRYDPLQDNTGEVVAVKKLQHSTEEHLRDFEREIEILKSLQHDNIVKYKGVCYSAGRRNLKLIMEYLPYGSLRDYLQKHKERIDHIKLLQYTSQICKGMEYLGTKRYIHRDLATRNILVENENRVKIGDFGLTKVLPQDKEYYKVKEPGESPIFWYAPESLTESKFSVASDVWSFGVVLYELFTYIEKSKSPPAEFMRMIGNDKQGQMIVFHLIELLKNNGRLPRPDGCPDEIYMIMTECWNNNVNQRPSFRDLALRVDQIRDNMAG
Sequence (P29597 whole entry): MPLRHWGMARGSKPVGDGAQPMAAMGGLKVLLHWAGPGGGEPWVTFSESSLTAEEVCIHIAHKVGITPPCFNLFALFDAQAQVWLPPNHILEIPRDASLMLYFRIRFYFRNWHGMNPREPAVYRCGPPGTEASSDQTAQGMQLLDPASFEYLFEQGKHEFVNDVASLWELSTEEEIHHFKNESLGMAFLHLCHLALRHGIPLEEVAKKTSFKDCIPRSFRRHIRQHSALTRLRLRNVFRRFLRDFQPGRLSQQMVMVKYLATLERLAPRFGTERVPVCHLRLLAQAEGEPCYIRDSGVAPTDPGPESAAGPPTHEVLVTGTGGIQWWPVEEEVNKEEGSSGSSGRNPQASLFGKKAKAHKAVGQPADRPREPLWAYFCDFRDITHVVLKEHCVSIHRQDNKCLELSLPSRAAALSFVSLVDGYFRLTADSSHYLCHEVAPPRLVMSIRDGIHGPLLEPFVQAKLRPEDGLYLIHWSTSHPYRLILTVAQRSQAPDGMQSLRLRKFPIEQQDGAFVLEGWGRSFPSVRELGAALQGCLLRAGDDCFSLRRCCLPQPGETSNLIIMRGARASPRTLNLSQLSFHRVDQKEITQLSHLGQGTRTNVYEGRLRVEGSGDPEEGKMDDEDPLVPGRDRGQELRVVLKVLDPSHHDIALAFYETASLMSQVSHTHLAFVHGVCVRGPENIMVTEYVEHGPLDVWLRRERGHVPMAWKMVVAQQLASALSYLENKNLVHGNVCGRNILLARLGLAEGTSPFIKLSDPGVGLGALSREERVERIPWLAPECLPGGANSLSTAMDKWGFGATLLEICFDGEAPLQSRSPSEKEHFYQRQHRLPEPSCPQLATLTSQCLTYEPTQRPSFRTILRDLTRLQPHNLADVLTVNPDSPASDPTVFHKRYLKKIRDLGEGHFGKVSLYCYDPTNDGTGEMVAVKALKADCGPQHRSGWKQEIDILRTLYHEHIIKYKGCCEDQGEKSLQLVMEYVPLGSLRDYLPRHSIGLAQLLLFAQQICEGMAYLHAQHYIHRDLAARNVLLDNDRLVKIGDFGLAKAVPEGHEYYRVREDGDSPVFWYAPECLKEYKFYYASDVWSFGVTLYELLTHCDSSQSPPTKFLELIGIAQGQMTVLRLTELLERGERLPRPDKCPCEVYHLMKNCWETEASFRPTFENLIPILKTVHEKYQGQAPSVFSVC
Experiment: Inhibition of TYK2/JAK2 in IL23-stimulated human Kit225 cells by steady-glo luciferase assay
Catalogue of pIC50 values
Note on units: pIC50 is unitless, being -log10 of a concentration expressed in mol/L.

- CNC(=O)c1cnc(NC(=O)C2CC2)cc1Nc1ccccc1S(C)(=O)=O: 6.37
- CNC(=O)c1cnc(Nc2ccc(F)cn2)cc1Nc1ccccc1S(C)(=O)=O: 7.20

// next entry
Kindly indicate its recorded pIC50. Item: "CNC(=O)c1cnc(Nc2ccccn2)cc1Nc1ccccc1S(C)(=O)=O"
7.15

====

Biological target: Non-receptor tyrosine-protein kinase TYK2 (Homo sapiens, UniProt P29597)
Sequence (P29597 whole entry, the tested form may be a part): as the sequence (P29597 whole entry) above
Experiment: Inhibition of fluorescein-labeled kinase tracer binding to His-TVMV-fused TYK2 JH2 domain (575 to 869 residues) (unknown origin) measured after 90 mins by HTRF assay
Metric name: pIC50
Note on units: pIC50 is unitless, being -log10 of a concentration expressed in mol/L.

Kindly indicate its recorded pIC50. Item: "CS(=O)(=O)c1ccccc1Nc1cc(Nc2ccc(F)cn2)ncc1C(N)=O"
9.49

Kindly indicate its recorded pIC50. Item: "NC(=O)c1ccccc1Nc1cc(Nc2ccc(F)cn2)ncc1C(=O)NC1CC1"
7.48

Kindly indicate its recorded pIC50. Item: "CNC(=O)c1cnc(Nc2ccccn2)cc1Nc1ccccc1S(C)(=O)=O"
9.02

Kindly indicate its recorded pIC50. Item: "CNC(=O)c1cnc(Nc2ccc(F)cn2)cc1Nc1ccccc1S(C)(=O)=O"
9.04

====

Catalogue of remaining at 10 min values
Assay: Metabolic stability in human liver microsomes assessed as parent compound remaining after 10 mins
Type: ADME, Microsome
Details: read-out: Stability
Report the figure in % without appending any unit label.

For orientation, consider the following solved cases.
• CCS(=O)(=O)c1ccccc1Nc1cc(Nc2ccc(F)cn2)ncc1C(=O)NC = 91
• CNC(=O)c1cnc(Nc2ccc(F)cn2)cc1Nc1ccccc1C(N)=O = 94
• CNC(=O)c1cnc(Nc2ccc(F)cn2)cc1Nc1ccccc1S(C)(=O)=O = 90

Kindly indicate its recorded remaining at 10 min. Item: "CNC(=O)c1cnc(Nc2ccc(F)cn2)cc1Nc1ccc(F)c(F)c1OC"
57

====

Biological target: UniProtKB O60674
Experiment: Inhibition of JAK2 JH1 domain (unknown origin)
Catalogue of IC50 values

For orientation, consider the following solved cases.
- CS(=O)(=O)c1ccccc1Nc1cc(Nc2ccc(F)cn2)ncc1C(N)=O: 18 nM
- [2H]C([2H])([2H])NC(=O)c1cnc(Nc2ccc(F)cn2)cc1Nc1ccccc1S(C)(=O)=O: > 50000 nM

Kindly indicate its recorded IC50. Item: "CNC(=O)c1cnc(Nc2ccc(F)cn2)cc1Nc1ccccc1S(C)(=O)=O"
> 50000 nM

Kindly indicate its recorded IC50. Item: "NC(=O)c1ccccc1Nc1cc(Nc2ccc(F)cn2)ncc1C(N)=O"
24 nM

====

Catalogue of pIC50 values
Molecular target: Non-receptor tyrosine-protein kinase TYK2 (Homo sapiens, UniProt P29597)
Experiment: Inhibition of TYK2 JH1 domain (unknown origin)
pIC50: −log10 of the molar value.

For orientation, consider the following solved cases.
• CN(C)C(=O)c1cnc(Nc2ccc(F)cn2)cc1Nc1ccccc1C(N)=O = < 5.70
• [2H]C([2H])([2H])NC(=O)c1cnc(Nc2ccc(F)cn2)cc1Nc1ccccc1S(C)(=O)=O = < 4.30

// next entry
Kindly indicate its recorded pIC50. Item: "CS(=O)(=O)c1ccccc1Nc1cc(Nc2ccc(F)cn2)ncc1C(N)=O"
7.38
